Taken from paper PMC10436262.

Target: METTL3/METTL14 (Homo sapiens, UniProt Q86U44)
Construct: made in house; host or cells: Sf9 insect cells (baculovirus)
Sequence (Q86U44 whole entry): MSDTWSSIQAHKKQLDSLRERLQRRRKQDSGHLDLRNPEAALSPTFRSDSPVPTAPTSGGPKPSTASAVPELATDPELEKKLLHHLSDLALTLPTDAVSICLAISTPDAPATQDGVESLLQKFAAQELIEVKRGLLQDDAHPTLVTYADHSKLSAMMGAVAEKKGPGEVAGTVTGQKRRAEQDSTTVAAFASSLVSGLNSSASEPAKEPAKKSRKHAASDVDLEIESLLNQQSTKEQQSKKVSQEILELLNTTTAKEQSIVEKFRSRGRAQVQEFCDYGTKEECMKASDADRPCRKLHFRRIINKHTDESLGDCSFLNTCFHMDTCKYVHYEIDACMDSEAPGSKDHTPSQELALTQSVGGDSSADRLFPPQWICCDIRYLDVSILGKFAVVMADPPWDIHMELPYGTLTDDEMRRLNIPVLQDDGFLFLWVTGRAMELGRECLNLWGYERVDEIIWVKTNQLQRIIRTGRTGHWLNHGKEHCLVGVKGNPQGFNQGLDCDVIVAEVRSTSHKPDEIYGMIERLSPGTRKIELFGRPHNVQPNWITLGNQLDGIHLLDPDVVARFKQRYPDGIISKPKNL
Sequence (Q9HCE5 whole entry partner): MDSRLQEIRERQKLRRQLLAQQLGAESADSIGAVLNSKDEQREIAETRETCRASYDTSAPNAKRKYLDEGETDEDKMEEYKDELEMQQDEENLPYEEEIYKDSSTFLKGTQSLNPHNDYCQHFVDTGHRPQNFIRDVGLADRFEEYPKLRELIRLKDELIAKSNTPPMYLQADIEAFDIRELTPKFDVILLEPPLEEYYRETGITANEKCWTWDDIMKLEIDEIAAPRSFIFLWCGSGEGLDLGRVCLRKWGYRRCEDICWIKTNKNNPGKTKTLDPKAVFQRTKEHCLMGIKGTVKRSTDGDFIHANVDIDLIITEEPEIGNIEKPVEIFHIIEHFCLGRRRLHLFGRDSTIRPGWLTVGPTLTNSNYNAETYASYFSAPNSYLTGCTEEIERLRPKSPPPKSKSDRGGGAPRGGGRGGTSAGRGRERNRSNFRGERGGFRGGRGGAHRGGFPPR
Test: METTL3 enzymatic inhibition assay by homogeneous time-resolved fluorescence (HTRF)
Assay type: biochemical
Conditions: HTRF assay, S isomer; read-out: IC50 (µM) S
Measurement Kind: IC50 (µM)
# value in µM; strip the unit string

CC1(C)CCN(Cc2ccc(C(=O)NCC3(O)CCCN(c4cc(NCc5ccccc5)ncn4)C3)cc2)CC1 (stereo not drawn)	7.1

Prompt: Entry CC1(C)CCN(Cc2ccc3c(NCC4(O)CCCN(c5cc(NCc6ccccc6)ncn5)C4)cccc3c2)CC1 (stereo not drawn) has what IC50?
Completion: 12

Prompt: Entry O=C(NCC1(O)CCCN(c2cc(NCc3ccccc3)ncn2)C1)c1ccc(CN2CC3(CCC3)C2)cc1 (stereo not drawn) has what IC50?
Completion: 1.3

###

Biological target: METTL3/METTL14 (Homo sapiens)
Construct: made in house; host or cells: Sf9 insect cells (baculovirus)
Assay: METTL3 enzymatic inhibition assay by homogeneous time-resolved fluorescence (HTRF)
Format: biochemical
Conditions: HTRF assay, racemic mixture; read-out: IC50
Threshold-based label: IC50 under 10 µM gives 1, IC50 not under 10 µM gives 0.

Consider the worked cases shown below.
O=C(NCC1(O)CCCN(c2cc(NCc3ccccc3)ncn2)C1)c1ccc(CN2CC3(CCC3)C2)cc1 (stereo not drawn)	1
CC1(CCO)CCN(Cc2ccc(C(=O)NCC3(O)CCCN(c4cc(NCc5ccccc5)ncn4)C3)cc2)CC1 (stereo not drawn)	0
CC1(C)CCN(Cc2ccc3c(NCC4(O)CCCN(c5cc(NCc6ccccc6)ncn5)C4)cccc3c2)CC1 (stereo not drawn)	1
CC1(C)CCN(Cc2ccc(C(=O)NCC3(O)CCCN(c4cc(NCc5ccccc5)ncn4)C3)cc2)CC1 (stereo not drawn)	1
CCCCC1(C)CCN(Cc2ccc(C(=O)NCC3(O)CCCN(c4cc(NCc5ccccc5)ncn4)C3)cc2)CC1 (stereo not drawn)	1
CC(C)CCNCc1ccc(C(=O)NCC2(O)CCCN(c3cc(NCc4ccccc4)ncn3)C2)cc1 (stereo not drawn)	0

Prompt: Please indicate whether the reported IC50 of CC(C)C1N(Cc2ccc(C(=O)NCC3(O)CCCN(c4cc(NCc5ccccc5)ncn4)C3)c(O)c2)CC12CCC2 (stereo not drawn) is strictly below 10 µM.
Completion: 1

Prompt: Please indicate whether the reported IC50 of O=C(NCC1(O)CCCN(c2cc(NCc3ccccc3)ncn2)C1)c1ccc(CN2CCCCC2)cc1 (stereo not drawn) is strictly below 10 µM.
Completion: 0

Prompt: Please indicate whether the reported IC50 of CCCN(Cc1ccc(C(=O)NCC2(O)CCCN(c3cc(NCc4ccccc4)ncn3)C2)cc1)C1CCCC1 (stereo not drawn) is strictly below 10 µM.
Completion: 0

Prompt: Please indicate whether the reported IC50 of CC(C)(C)CNCc1ccc(C(=O)NCC2(O)CCCN(c3cc(NCc4ccccc4)ncn3)C2)cc1 (stereo not drawn) is strictly below 10 µM.
Completion: 1

Prompt: Please indicate whether the reported IC50 of CC(F)C1CCN(Cc2ccc(C(=O)NCC3(O)CCCN(c4cc(NCc5ccccc5)ncn4)C3)cc2)CC1 (stereo not drawn) is strictly below 10 µM.
Completion: 0

Prompt: Please indicate whether the reported IC50 of CNc1cc(N2CCCC(O)(CNC(=O)c3ccc(CN4CCC(C)(CN)CC4)cc3)C2)ncn1 (stereo not drawn) is strictly below 10 µM.
Completion: 0

###

Biological target: METTL3/METTL14 (Homo sapiens, UniProt Q86U44)
Construct: made in house; host or cells: Sf9 insect cells (baculovirus)
Assay: METTL3 enzymatic inhibition assay by homogeneous time-resolved fluorescence (HTRF)
Assay type: biochemical
Details: HTRF assay, racemic mixture; read-out: IC50
Measurement Kind: IC50

Examples from the recorded data:
CNc1cc(N2CCCC(O)(CNC(=O)c3ccc(CN4CCC(C)(N)CC4)cc3)C2)ncn1 (centres unmarked) [compound 7]	42 µM
CNc1cc(N2CCCC(O)(CNC(=O)c3ccc(CN4CCCCC4)cc3)C2)ncn1 (centres unmarked) [compound 1]	430 µM
CC(C)C1(O)CN(Cc2ccc(C(=O)NCC3(O)CCCN(c4cc(NCc5ccccc5)ncn4)C3)cc2)C1 (centres unmarked) [compound 23]	15 µM
O=C(NCC1(O)CCCN(c2cc(NCc3ccccc3)ncn2)C1)c1ccc(CN2CCC3(CC2)CC3)cc1 (centres unmarked) [compound 17]	3.3 µM

Now, please, on to the next compound.
Prompt: Entry CCCCN(Cc1ccc(C(=O)NCC2(O)CCCN(c3cc(NCc4ccccc4)ncn3)C2)cc1)C1CCCCC1 (centres unmarked) [compound 26] has what IC50?
Completion: > 10 µM

###

Target: METTL3/METTL14 (Homo sapiens, UniProt Q86U44)
Construct: made in house; host or cells: Sf9 insect cells (baculovirus)
Assay: METTL3 enzymatic inhibition assay by homogeneous time-resolved fluorescence (HTRF)
Assay type: biochemical
Settings: HTRF assay, racemic mixture; read-out: IC50
pIC50: −log10 of the molar value.
Label MET when pIC50 is at or above 5; anything below gets NOT MET.

CC1(C)CCN(Cc2ccc(C(=O)NCC3(O)CCCN(c4cc(NCc5cccc6nc[nH]c56)ncn4)C3)cc2)CC1 (stereo not drawn) [compound 9]	MET
CNc1cc(N2CCCC(O)(CNC(=O)c3ccc(CN4CCC(C)CC4)cc3)C2)ncn1 (stereo not drawn) [compound 3]	NOT MET
CCCN(Cc1ccc(C(=O)NCC2(O)CCCN(c3cc(NCc4ccccc4)ncn3)C2)cc1)C1CCCCC1 (stereo not drawn) [compound 38]	NOT MET
CC1(C)CCN(Cc2ccc(C(=O)NCC3(O)CCCN(c4cc(NCc5cccc(S(N)(=O)=O)c5)ncn4)C3)c(O)c2)CC1 (stereo not drawn) [compound 52]	MET
O=C(NCC1(O)CCCN(c2cc(NCc3ccccc3)ncn2)C1)c1ccc(CN2CC3(CCC3)C2C2CC2)cc1O (stereo not drawn) [compound 53]	MET

Prompt: Exam item: decide whether the reported pIC50 for CC1(C)CCN(Cc2ccc3nc(CC4(O)CCCN(c5cc(NCc6ccccc6)ncn5)C4)[nH]c3c2)CC1 (stereo not drawn) [compound 47] is at least 5.
Completion: MET

Prompt: Exam item: decide whether the reported pIC50 for CSc1cc(CN2CCC(C)(C)CC2)ccc1C(=O)NCC1(O)CCCN(c2cc(NCc3ccccc3)ncn2)C1 (stereo not drawn) [compound 44] is at least 5.
Completion: MET

###

Biological target: METTL3/METTL14 (Homo sapiens, UniProt Q86U44)
Construct: made in house; host or cells: Sf9 insect cells (baculovirus)
Test: METTL3 enzymatic inhibition assay by homogeneous time-resolved fluorescence (HTRF)
Type: biochemical
Settings: HTRF assay, racemic mixture; read-out: IC50
Measurement Kind: IC50 (µM)
# value in µM; strip the unit string

O=C(NCC1(O)CCCN(c2cc(NCc3ccccc3)ncn2)C1)c1ccc(CNCC2CCC2)cc1 (stereo not drawn) [compound 36]	5.2
CCC(CC)CNCc1ccc(C(=O)NCC2(O)CCCN(c3cc(NCc4ccccc4)ncn3)C2)cc1 (stereo not drawn) [compound 28]	7.4

Prompt: Entry CC1(C)CCN(CCCCC(=O)NCC2(O)CCCN(c3cc(NCc4ccccc4)ncn3)C2)CC1 (stereo not drawn) [compound 49] has what IC50?
Completion: 60

Prompt: Entry CNC(=O)c1cccc(CNc2cc(N3CCCC(O)(CNC(=O)c4ccc(CN5CCC(C)(C)CC5)cc4O)C3)ncn2)c1 (stereo not drawn) [compound 51] has what IC50?
Completion: 0.19

Prompt: Entry CC(C)C1N(Cc2ccc(C(=O)NCC3(O)CCCN(c4cc(NCc5ccccc5)ncn4)C3)cc2)CC12CCC2 (stereo not drawn) [compound 30] has what IC50?
Completion: 0.13

Prompt: Entry CC1(O)CCN(Cc2ccc(C(=O)NCC3(O)CCCN(c4cc(NCc5ccccc5)ncn4)C3)cc2)CC1 (stereo not drawn) [compound 24] has what IC50?
Completion: 8.4

Prompt: Entry CC1(C)CCN(Cc2ccc(C(=O)NCC3(O)CCCN(c4cc(NCc5cccc6ccccc56)ncn4)C3)cc2)CC1 (stereo not drawn) [compound 15] has what IC50?
Completion: 0.77

Prompt: Entry CC1(C)CN(Cc2ccc(C(=O)NCC3(O)CCCN(c4cc(NCc5ccccc5)ncn4)C3)cc2)C1 (stereo not drawn) [compound 27] has what IC50?
Completion: 9.3

Prompt: Entry CC1(C)CCN(Cc2ccc(C(=O)NCC3(O)CCCN(c4cc(NCc5cccc6sccc56)ncn4)C3)cc2)CC1 (stereo not drawn) [compound 10] has what IC50?
Completion: 0.82

Prompt: Entry CC(C)CNCc1ccc(C(=O)NCC2(O)CCCN(c3cc(NCc4ccccc4)ncn3)C2)cc1 (stereo not drawn) [compound 33] has what IC50?
Completion: 5.1

Prompt: Entry CC1CCN(Cc2ccc(C(=O)NCC3(O)CCCN(c4cc(NCc5ccccc5)ncn4)C3)cc2)C2CCCCC12 (stereo not drawn) [compound 41] has what IC50?
Completion: 12

Prompt: Entry CCC1CCN(Cc2ccc(C(=O)NCC3(O)CCCN(c4cc(NC)ncn4)C3)cc2)CC1 (stereo not drawn) [compound 6] has what IC50?
Completion: 230

Prompt: Entry O=C(NCC1(O)CCCN(c2cc(NCc3ccccc3)ncn2)C1)c1ccc(CN2CC3(CCCC3)C2)cc1 (stereo not drawn) [compound 32] has what IC50?
Completion: 7.7
